# System: VchCAST RNA-guided transposition machinery (E. coli BL21(DE3) host, lacZ target)
# Method Description: relative integration efficiency (T-RL orientation) vs wild-type transposon end (log2 (normalized fold change)); transposon end mutated: left end; higher = more efficient transposition
What relative integration efficiency (log2) was measured for each of the following?
One number for each entry.

Record excerpt, results attached:
AATGTTGTTGATGCAACCATAAAGTGATATTTAATAATTATTTATAATCAGCAACTTAACCACAAAACAACCATATATTGATATCTCACAAAACAACCATAAGTTTCGCGGGGGTGTCCGATCTGATTTCAGCAAAACTACTGCAGTAAGAA :: -2.22
AATGTTGTTGATGCAACCATAAAGTGATATTTAATAACTTCGTATAAAGTATCCTATACGAAGTTATCAACCATATATTGATATCTCACAAAACAACCATAAGTTGATATTTTTGTGAATCGAGTATTTCAGCAAAACTACTGCAGTAAGAA :: -2.17
AATGTTGTTGATGCAACCATAAAGTGATATTTAATAATTATTTATAATCAGCAACTTAACCACAAAACAACCATATATTGATATCTCACAAAACAACCATAAGTTGATTGTGAATCGAGTATTTCAGCAAAACTACTGCAGTAAGAAAGTTA :: -0.574
AATGTTGTTGATGCAACCATAAAGTGATAATAATTATTTATAATCAGCAACTTAACCACAAAACAACCATATATTGATATCTCACAAAACAACCATAAGTTGATATTTTTGTGAATCGAGTATTTCAGCAAAACTACTGCAGTAAGAAAGTT :: -7.71
AATGTTGTTGATGCAACCATAAAGTGATATTTAATAACTTGGTATAGCATACATTATACGAACGGTACAACCATATATTGATATCTCACAAAACAACCATAAGTTGATATTTTTGTGAATCGAGTATTTCAGCAAAACTACTGCAGTAAGAA :: -3.71
AATGTTGTTGATGCAACCATAAAGTGATATTTACGCCGGCGGGCGCCGACTACCAGGCCAACACCCCACCAACGCGCGGTCGCGAGACACCCCACCAACGCCTGGTCGCGGGGGTGTCCGATCTGATTTCAGCAAAACTACTGCAGTAAGAA :: -6.9

Each of the following entries comes with a recorded value; kindly state relative integration efficiency (log2) for each.
1. AATGTTGTTGATGCAACCATAAAGTGATATTTAATAATTATGGCGCCGACTACCAGGCCAACACCCCACCAACGCGCGGTCGCGAGACACCCCACCAACGCCTGGTCGCGGGGGTGTCCGATCTGATTTCAGCAAAACTACTGCAGTAAGAA
2. AATGTTGTTGATGCAACCATAAAGTGATATTTAATAATTATTTATAATCAGCAACTTAACCACAAAACAACCATATATTGAGCGAGACACCCCACCAACGCCTGGTCGCGGGGGTGTCCGATCTGATTTCAGCAAAACTACTGCAGTAAGAA
3. AATGTTGTTGATGCAACCATAAGTTGATATTTTATAATTATTTATAATCAGCAACTTAACCACAAAACACCCATAAATTGATAATTAACAAAAGTTGGTATTCAACTATAAAATGTGAATCGAGTATTTCAGCAAAACTACTGCAGTAAGAA
4. AATGTTGTTGATACAACCATAAAGTGATATTTACAACCATATATTGATATCTCTCACAACCATAAGTTGATATTTTTGTGAATCGAGTATTTCAGCAAAACTACTGCAGTAAGAAAGTTACTTCGTGGTATGGGAGGATCAAGGAGCCAATA
5. AATGTTGTTGACAACCATAAAGTGATATTTAATAATTATTTATAATCAGCAACTTAACCACAAAACAACCATATATTGATATCTCACAAAACAACCATAAGTTGATATTTTTGTGAATCGAGTATTTCAGCAAAACTACTGCAGTAAGAAAG

Response given:
-6.86
-4.19
-2.37
-3.51
-1.33

Each of the following entries comes with a recorded value; kindly state relative integration efficiency (log2) for each.
1. AATGTTGTTGATGCAACCATAAAGTGATATTTAACAACCATATATTGATATCTCACAAAACAACCATAAGTTGATATTTTTAATTATTTATAATCAGCAACTTAACCACAAAATGTGAATCGAGTATTTCAGCAAAACTACTGCAGTAAGAA
2. AATGTTGTTGATGCAACCATAAAGTGATATTTAATAACAACCATATATTGATATCTCACAAAACAACCATAAGTTGATATTTTTGTGAATCGAGTATTTCAGCAAAACTACTGCAGTAAGAAAGTTACTTCGTGGTATGGGAGGATCAAGGA

Response given:
[-1.58, -5.54]

Each of the following entries comes with a recorded value; kindly state relative integration efficiency (log2) for each.
1. AATGTTGTTGATGCAACCATAAAGTGATATTTAATAATGCGGGCGCCGACTACCAGGCCAACACCCCACCAACGCGCGGTCGCGAGACACCCCACCAACGCCTGGTCGCGGGGGTGTCCGATCTGATTTCAGCAAAACTACTGCAGTAAGAA
2. AATGTTGTTGATGCACCCATAAATTGATAATTAATAATTATTTATAATCAGCAACTTAACCACAAAACAACCATAAAATGATAATTAACAAAAGTTGGTATTCAACTATAAAATGTGAATCGAGTATTTCAGCAAAACTACTGCAGTAAGAA
3. TTTTGTGTTGAAACAACCATAAAGTGATAACAACGAATCAATTAAAATCATAGGCTTAATCGAAAAACAACCATATCTTGATATCGCATAAAACAACCATAAGTTGATATTTTTGTGAATAGGATATTCCAACCTTCATAGTTTAGTAAGAA
4. AATGTTGTTGATGCAACCATAAAGTGATATTTAATAATTATTTATAATCAGCAACTTAACCAACCCCACCAACGCGCGGTCGCGAGACACCCCACCAACGCCTGGTCGCGGGGGTGTCCGATCTGATTTCAGCAAAACTACTGCAGTAAGAA

Response given:
-7.04
-2.86
0.192
-5.95

The measurements presented in this section are drawn from the supplement of paper PMC10201428.
